Origin of values: patent US20240270821A1

- TARGET_OR_SYSTEM: hGIPR (Homo sapiens)
- Sequence (P48546 22-466): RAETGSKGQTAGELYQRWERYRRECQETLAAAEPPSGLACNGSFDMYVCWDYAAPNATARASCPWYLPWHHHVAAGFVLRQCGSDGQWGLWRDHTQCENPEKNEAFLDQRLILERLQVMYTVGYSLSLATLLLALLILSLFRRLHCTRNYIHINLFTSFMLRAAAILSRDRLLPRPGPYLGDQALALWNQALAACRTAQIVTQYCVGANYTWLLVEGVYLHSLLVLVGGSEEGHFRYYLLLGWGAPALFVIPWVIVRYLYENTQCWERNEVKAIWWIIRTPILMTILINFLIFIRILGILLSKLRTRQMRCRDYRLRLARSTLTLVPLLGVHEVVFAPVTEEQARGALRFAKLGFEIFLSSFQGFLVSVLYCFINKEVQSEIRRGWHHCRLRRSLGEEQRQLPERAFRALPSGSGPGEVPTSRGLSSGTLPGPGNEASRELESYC
- ASSAY_COMMENT: Functional cAMP activation in the presence of 0.1% casein (no HSA);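 note: intracellular cAMP rise after 30 min at 37 °C read by HTRF against a standard curve, scaled between buffer alone (0%) and top control ligand concentration (100%), four-parameter fit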
- Type: cell-based
- EXPERIMENTAL_PARAMETERS: in the presence of 0.1% casein (no HSA); geometric mean; read-out: Relative cAMP EC50, hGIPR
Starred links: 1 amine or outer side, 2 acyl side, 3 side chain; linkers in the order of their positions; H or OH if unused. Non-standard residues stand in square brackets, D forms with d. Groups on a side chain read outwards from the residue. No end group written: not given here. *: point of attachment. C20 diacid = O=C(O)CCCCCCCCCCCCCCCCCCC(=O)*; C18 diacid = O=C(O)CCCCCCCCCCCCCCCCC(=O)*; αMePhe(2-F) = C[C@](N)(Cc1ccccc1F)C(=O)O; γGlu = O=C(O)[C@H](CCC(=O)[*:2])N[*:1]; 4Pal = N[C@@H](Cc1ccncc1)C(=O)O; αMeL = CC(C)C[C@](C)(N)C(=O)O; Orn = NCCC[C@H](N)C(=O)O; AEEA = NCCOCCOCC(=O)O; Aib = CC(C)(N)C(=O)O
This section presents substances with their documented pEC50 values.
Formally, pEC50 is defined as -log10 of the concentration c, with c in mol/L.

Known results for substances:
H-Y[Aib]QGT[αMePhe(2-F)]TSDFSILLDKQAQK([AEEA-AEEA-γGlu-C20 diacid])AFIEYLLEGGPSSGEPPPSEG-NH2 [Example 346] ... 10.13
Y[Aib]QGT[αMePhe(2-F)]TSDYSKILDKIAQK([AEEA-γGlu-C20 diacid])AFIQYLIEGGPSSGEPPPSEG-NH2 [Example 354] ... 9.87
H-Y[Aib]QGTFTSDFSK[αMeL]LDKK([AEEA-γGlu-C18 diacid])AQ[Aib]AFIEYLIE[Aib]SPSSGAPPPSGS-NH2 [Example 805] ... 10.06
H-Y[Aib]QGTFTSDFS[Orn][αMeL]LDKK([AEEA-γGlu-C18 diacid])AQ[Aib]AFIEYLLE[dA]GPSSGAPPPSG[4Pal]-NH2 [Example 211] ... 9.94

We next turn to a different substance, shown below.
Input line: Hello, I am looking for reported pEC50 with hGIPR (Homo sapiens) for H-Y[Aib]QGTFTSDFS[Orn][αMeL]LDKK([AEEA-AEEA-γGlu-C18 diacid])AQ[Aib]AFIEYLLE[Aib]GHSSGAPPPSGT-NH2 [Example 182] . Could you help?
Output line: 10.11

---

- TARGET_OR_SYSTEM: hGLP-1R (Homo sapiens, UniProt P43220)
- Sequence (P43220 24-463): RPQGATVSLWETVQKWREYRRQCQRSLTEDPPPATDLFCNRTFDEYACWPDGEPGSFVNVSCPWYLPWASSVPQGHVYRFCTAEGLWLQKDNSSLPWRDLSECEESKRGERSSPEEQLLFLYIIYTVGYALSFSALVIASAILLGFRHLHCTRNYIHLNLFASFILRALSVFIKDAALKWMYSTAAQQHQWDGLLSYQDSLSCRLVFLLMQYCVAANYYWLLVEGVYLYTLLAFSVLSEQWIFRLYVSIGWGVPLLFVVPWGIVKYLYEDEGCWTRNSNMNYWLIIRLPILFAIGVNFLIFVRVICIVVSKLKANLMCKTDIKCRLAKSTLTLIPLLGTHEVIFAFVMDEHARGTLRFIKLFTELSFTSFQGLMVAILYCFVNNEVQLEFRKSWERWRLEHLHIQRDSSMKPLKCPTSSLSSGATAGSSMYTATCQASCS
- ASSAY_COMMENT: Functional cAMP activation in the presence of 0.1% casein (no HSA);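 for Relative cAMP EC50, hGLP-1R: intracellular cAMP rise after 30 min at 37 °C read by HTRF, normalized between buffer only (0%) and maximal control ligand (100%), four-parameter variable-slope fit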
- Assay type: cell-based
- EXPERIMENTAL_PARAMETERS: in the presence of 0.1% casein (no HSA); geometric mean; read-out: Relative cAMP EC50, hGLP-1R
Starred links: 1 amine or outer side, 2 acyl side, 3 side chain; linkers in the order of their positions; H or OH if unused. Non-standard residues stand in square brackets, D forms with d. Groups on a side chain read outwards from the residue. *: point of attachment. C20 diacid = O=C(O)CCCCCCCCCCCCCCCCCCC(=O)*; C18 diacid = O=C(O)CCCCCCCCCCCCCCCCC(=O)*; αMePhe(2-F) = C[C@](N)(Cc1ccccc1F)C(=O)O; γGlu = O=C(O)[C@H](CCC(=O)[*:2])N[*:1]; αMe4Pal = C[C@](N)(Cc1ccncc1)C(=O)O; αMeY = C[C@](N)(Cc1ccc(O)cc1)C(=O)O; 4Pal = N[C@@H](Cc1ccncc1)C(=O)O; αMeL = CC(C)C[C@](C)(N)C(=O)O; Orn = NCCC[C@H](N)C(=O)O; AEEA = NCCOCCOCC(=O)O; Aib = CC(C)(N)C(=O)O
QUANTITY: pEC50
Scale: negative log10 of molar concentration, which is what pEC50 denotes.

H-Y[Aib]QGT[αMePhe(2-F)]TSDYSKLLDKIAQK([AEEA-γGlu-C20 diacid])AFIEYLIEGGPSSGAPPPSEG-NH2 [Example 339] ... 8.97

Input line: Which pEC50 is reported with hGLP-1R (Homo sapiens, UniProt P43220) for this entry: H-Y[Aib]QGTFTSDYSI[αMeL]LDKQAAK([AEEA-AEEA-γGlu-C20 diacid])AFVEWLLA[Aib]GPSSGEPPPSEG-NH2 [Example 317] ?
Output line: 8.88

Input line: API: value(readout=pEC50, system=hGLP-1R (Homo sapiens, UniProt P43220)) for record H-Y[Aib]QGTFTSD[4Pal]SQ[αMeL]LD[Orn]K([γGlu-γGlu-C18 diacid])AQ[αMe4Pal]AFIE[αMeY]LIA[Aib]GPSSGAPPPSGSEE-NH2 [Example 1107]
Output line: 9.29

Input line: What measured pEC50 is associated with H-Y[Aib]QGTFTSD[4Pal]SQ[αMeL]LDKK([γGlu-γGlu-C18 diacid])AQ[αMe4Pal]AFIE[αMe4Pal]LIE[Aib]GPSSGAPPPSGE-NH2 [Example 1120] on hGLP-1R (Homo sapiens, UniProt P43220)?
Output line: 8.35

Input line: Enter reported pEC50 observed with hGLP-1R (Homo sapiens, UniProt P43220) for H-Y[Aib]QGTFTSDFS[Orn][αMeL]LDKK([AEEA-γGlu-C18 diacid])AQ[Aib]AFIEYLLAGGPSSGAPPPSGT-NH2 [Example 87]
Output line: 8.56
